Source listed as ChEMBL document CHEMBL1127551.

biological target: Cyclooxygenase (Bos taurus, UniProt O62664+O62698); experiment: Inhibition of Prostaglandin G/H synthase in bovine thrombocyte intact cell assay.
PROPERTY_MEASURED: IC50 (µM)

CC1(C)Cc2c(-c3ccccc3)c(-c3ccccc3Cl)c(CC(=O)O)n2C1	61
CC1(C)Cc2c(-c3ccccc3)c(-c3ccc(Cl)c(Cl)c3Cl)c(CC(=O)O)n2C1	12
CC1(C)Cc2c(-c3ccccc3)c(-c3ccc(C(C)(C)C)cc3)c(CC(=O)O)n2C1	20

A = CC1(C)Cc2c(-c3ccccc3)c(-c3ccc(Oc4ccccc4)cc3)c(CC(=O)O)n2C1
B = CC1(C)Cc2c(-c3ccccc3)c(-c3cccc(Cl)c3)c(CC(=O)O)n2C1
C = CC1(C)Cc2c(-c3ccccc3)c(-c3ccc(Cl)cc3Cl)c(CC(=O)O)n2C1
D = COc1ccc(-c2c(-c3ccccc3)c3n(c2CC(=O)O)CC(C)(C)C3)cc1
// query hey, can you rank those compounds up there by IC50? biggest number first please Return value: ordered labels per request.
// result C, B, A, D
